Target: MMP-9h (Homo sapiens (Human))
Sequence (P14780 94-707): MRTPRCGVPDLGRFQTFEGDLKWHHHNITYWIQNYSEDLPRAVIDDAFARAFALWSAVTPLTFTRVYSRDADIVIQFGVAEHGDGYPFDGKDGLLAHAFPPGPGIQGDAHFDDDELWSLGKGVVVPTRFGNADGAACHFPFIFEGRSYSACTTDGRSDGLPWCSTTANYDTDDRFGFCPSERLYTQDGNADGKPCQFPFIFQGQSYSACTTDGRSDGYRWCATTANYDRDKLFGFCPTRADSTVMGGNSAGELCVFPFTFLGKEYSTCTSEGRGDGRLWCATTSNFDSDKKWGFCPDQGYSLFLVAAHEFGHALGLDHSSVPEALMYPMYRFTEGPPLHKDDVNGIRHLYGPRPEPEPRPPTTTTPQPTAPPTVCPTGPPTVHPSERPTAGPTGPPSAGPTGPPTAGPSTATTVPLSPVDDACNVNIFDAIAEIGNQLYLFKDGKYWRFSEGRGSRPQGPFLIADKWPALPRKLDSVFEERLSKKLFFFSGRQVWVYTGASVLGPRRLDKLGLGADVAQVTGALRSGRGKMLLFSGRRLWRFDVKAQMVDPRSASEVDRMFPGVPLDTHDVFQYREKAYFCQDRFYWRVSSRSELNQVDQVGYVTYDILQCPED
Test: Inhibition constant (Ki) on MMP-9h
Type: biochemical
Conditions: read-out: Ki MMP-9h; human MMP-9
MEASURE NAME: Ki

Some molecules with recorded Ki:
{"MOLECULE": "NC(=O)[C@H](CCCC(=O)O)NC(=O)[C@H](CCC(=O)O)NC(=O)CCc1ccc(-c2cc(-c3ccccc3)cs2)cc1 [Compound 103]", "TARGET DESC": "MMP-9h (Homo sapiens (Human))", "Ki": "> 5 µM"}
{"MOLECULE": "COc1cccc(-c2ccc(CCC(=O)N[C@@H](CCC(=O)O)C(=O)N[C@@H](CCC(=O)O)C(N)=O)cc2)c1 [Compound 59]", "TARGET DESC": "MMP-9h (Homo sapiens (Human))", "Ki": "> 5 µM"}
{"MOLECULE": "NC(=O)[C@H](CC(=O)O)NC(=O)[C@H](CC(=O)O)NC(=O)CCc1cc(-c2ccc(-c3ccccc3)cc2)no1 [Compound 19]", "TARGET DESC": "MMP-9h (Homo sapiens (Human))", "Ki": "> 1 µM"}
{"MOLECULE": "NC(=O)[C@H](CCC(=O)O)NC(=O)[C@H](CCC(=O)O)NC(=O)CCc1ccc(-c2cccc(Cl)c2)cc1 [Compound 57]", "TARGET DESC": "MMP-9h (Homo sapiens (Human))", "Ki": "> 1 µM"}
{"MOLECULE": "NC(=O)CC[C@H](NC(=O)CCc1cc(-c2ccc(-c3ccccc3)cc2)no1)C(=O)N[C@@H](CCC(=O)O)C(N)=O [Compound 20]", "TARGET DESC": "MMP-9h (Homo sapiens (Human))", "Ki": "> 1 µM"}

Inquiry: Look up and state reported Ki for NC(=O)[C@H](CCC(=O)O)NC(=O)[C@H](CCC(=O)O)NC(=O)CCc1ccc(-c2ccc(-c3ccccc3)cc2)cc1 [Compound 61]
Reply text: > 1 µM

Inquiry: Look up and state reported Ki for NC(=O)[C@H](CCC(=O)O)NC(=O)[C@H](CCC(=O)O)NC(=O)CCc1ccc(C#Cc2ccccc2)cc1 [Compound 30]
Reply text: 0.235 µM
